Reference source: PubChem BioAssay AID1963870

system: 292921-168-R-J2-PDC KRAS tumor spheroid viability; assay: Anticancer human tumor 292921-168-R-J2-PDC patient-derived pancreatic carcinoma cell line growth inhibition [KRAS2]; settings: second compound 0.1 µM; first compound 0.316 µM; hits give low values; spheroids with HUVEC and MSC
Decide using viability, T/C alone. Strictly below 30%: yes. Equal to or above 30%: no.

Worked cases, answers included:
molecule: COC(=O)c1ccc2c(C(=Nc3ccc(N(C)C(=O)CN4CCN(C)CC4)cc3)c3ccccc3)c(O)[nH]c2c1 + CNCc1ccccc1-c1csc(C(C)Nc2nc(C)nc3cc(OC)c(OC)cc23)c1
classAssignment: no
//
molecule: CC(=O)OC12COC1CC(O)C1(C)C(=O)C(O)C3=C(C)C(OC(=O)C(O)C(NC(=O)OC(C)(C)C)c4ccccc4)CC(O)(C(OC(=O)c4ccccc4)C21)C3(C)C (stereo not given) + CC1OCC2(CCN(c3cnc(Sc4ccnc(N)c4Cl)c(N)n3)CC2)C1N
classAssignment: yes
//
molecule: CC(C)NCC(C(=O)N1CCN(c2ncnc3c2C(C)CC3O)CC1)c1ccc(Cl)cc1 (stereo not given) + CNCc1ccccc1-c1csc(C(C)Nc2nc(C)nc3cc(OC)c(OC)cc23)c1
classAssignment: no
//
molecule: O=C(c1cc(Cc2n[nH]c(=O)c3ccccc23)ccc1F)N1CCN(C(=O)C2CC2)CC1 + CNCc1ccccc1-c1csc(C(C)Nc2nc(C)nc3cc(OC)c(OC)cc23)c1
classAssignment: no
//
molecule: COc1cc2nccc(Oc3ccc(NC(=O)C4(C(=O)Nc5ccc(F)cc5)CC4)cc3)c2cc1OC + CC1OCC2(CCN(c3cnc(Sc4ccnc(N)c4Cl)c(N)n3)CC2)C1N
classAssignment: no
//
molecule: CCNC(=O)CC1N=C(c2ccc(Cl)cc2)c2cc(OC)ccc2-n2c(C)nnc21 (stereo not given) + CC1OCC2(CCN(c3cnc(Sc4ccnc(N)c4Cl)c(N)n3)CC2)C1N
classAssignment: no

Inquiry: viability, T/C under 30%? Item: CC(=O)OC12COC1CC(O)C1(C)C(=O)C(O)C3=C(C)C(OC(=O)C(O)C(NC(=O)OC(C)(C)C)c4ccccc4)CC(O)(C(OC(=O)c4ccccc4)C21)C3(C)C (stereo not given) + CNCc1ccccc1-c1csc(C(C)Nc2nc(C)nc3cc(OC)c(OC)cc23)c1
Reply text: yes

Inquiry: Record CC1(C)CCC(CN2CCN(c3ccc(C(=O)NS(=O)(=O)c4ccc(NCC5CCOCC5)c([N+](=O)[O-])c4)c(Oc4cnc5[nH]ccc5c4)c3)CC2)=C(c2ccc(Cl)cc2)C1 + CC1OCC2(CCN(c3cnc(Sc4ccnc(N)c4Cl)c(N)n3)CC2)C1N : is its viability, T/C strictly below 30%?
Reply text: no

Inquiry: # strict comparison: is reported viability, T/C < 30%? input = CC1OCC2(CCN(c3cnc(Sc4ccnc(N)c4Cl)c(N)n3)CC2)C1N (stereo not given) + COc1cc2nc(C)nc(NC(C)c3cc(N)cc(C(F)(F)F)c3)c2cc1OC1CCOC1
Reply text: no

Inquiry: Strictly below 30%: is that where viability, T/C of CC(=O)OC12COC1CC(O)C1(C)C(=O)C(O)C3=C(C)C(OC(=O)C(O)C(NC(=O)OC(C)(C)C)c4ccccc4)CC(O)(C(OC(=O)c4ccccc4)C21)C3(C)C (stereo not given) + C=CC(=O)N1CCN(c2nc(=O)n(-c3c(C)ccnc3C(C)C)c3nc(-c4c(O)cccc4F)c(F)cc23)C(C)C1 sits?
Reply text: yes

Inquiry: Threshold test, viability, T/C < 30%: CC1COCCN1c1cc(-c2ccnn2C)c2ccnc(-c3ccn[nH]3)c2n1 (stereo not given) + C=CC(=O)N1CCN(c2nc(=O)n(-c3c(C)ccnc3C(C)C)c3nc(-c4c(O)cccc4F)c(F)cc23)C(C)C1
Reply text: yes

Inquiry: Dear reviewer, please state whether COc1cc(Nc2ncc3c(n2)-c2ccc(Cl)cc2C(c2c(F)cccc2OC)=NC3)ccc1C(=O)O + C=CC(=O)N1CCN(c2nc(OCC3CCCN3C)nc3c2CCN(c2cccc4cccc(C)c24)C3)CC1CC#N has viability, T/C strictly beneath 30%.
Reply text: yes

Inquiry: is_below(viability, T/C, 30%) for O=C(c1cc(Cc2n[nH]c(=O)c3ccccc23)ccc1F)N1CCN(C(=O)C2CC2)CC1 + CC1OCC2(CCN(c3cnc(Sc4ccnc(N)c4Cl)c(N)n3)CC2)C1N ?
Reply text: no

Inquiry: Please indicate whether the reported viability, T/C of COc1cc(Nc2ncc3c(n2)-c2ccc(Cl)cc2C(c2c(F)cccc2OC)=NC3)ccc1C(=O)O + CC1OCC2(CCN(c3cnc(Sc4ccnc(N)c4Cl)c(N)n3)CC2)C1N is strictly below 30%.
Reply text: yes

Inquiry: Field: below-cutoff. Rule: recorded viability, T/C strictly less than 30%. Subject: CC1(C)CCC(CN2CCN(c3ccc(C(=O)NS(=O)(=O)c4ccc(NCC5CCOCC5)c([N+](=O)[O-])c4)c(Oc4cnc5[nH]ccc5c4)c3)CC2)=C(c2ccc(Cl)cc2)C1 + CNCc1ccccc1-c1csc(C(C)Nc2nc(C)nc3cc(OC)c(OC)cc23)c1
Reply text: no

Inquiry: Below 30% on viability, T/C? Entry COc1cc2nccc(Oc3ccc(NC(=O)C4(C(=O)Nc5ccc(F)cc5)CC4)cc3)c2cc1OC + C=CC(=O)N1CCN(c2nc(OCC3CCCN3C)nc3c2CCN(c2cccc4cccc(C)c24)C3)CC1CC#N
Reply text: no

Inquiry: # TODO verify viability, T/C < 30% strictly for this molecule: CC(C)NCC(C(=O)N1CCN(c2ncnc3c2C(C)CC3O)CC1)c1ccc(Cl)cc1 (stereo not given) + CC1OCC2(CCN(c3cnc(Sc4ccnc(N)c4Cl)c(N)n3)CC2)C1N
Reply text: no

Inquiry: Input CCN1CCN(Cc2ccc(Nc3ncc(F)c(-c4cc(F)c5nc(C)n(C(C)C)c5c4)n3)nc2)CC1 + CNCc1ccccc1-c1csc(C(C)Nc2nc(C)nc3cc(OC)c(OC)cc23)c1 ; condition: viability, T/C strictly below 30%. Does it hold?
Reply text: yes

Inquiry: Lab log: compare recorded viability, T/C with 30%; is it strictly lower for COc1cc2nccc(Oc3ccc(NC(=O)C4(C(=O)Nc5ccc(F)cc5)CC4)cc3)c2cc1OC + COc1cc2nc(C)nc(NC(C)c3cc(N)cc(C(F)(F)F)c3)c2cc1OC1CCOC1 ?
Reply text: no

###

system: 292921-168-R-J2-PDC KRAS tumor spheroid viability; assay: Anticancer human tumor 292921-168-R-J2-PDC cell line growth inhibition [KRAS2]; conditions: second compound 10 µM; first compound 1 µM; hits give low values; spheroids with HUVEC and MSC;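 also: drug exposure lasted seven days after spheroids formed for three days; percent of DMSO vehicle control viability which is 100%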
Measured viability, T/C, listed per entry.

molecule: COC(=O)c1ccc2c(C(=Nc3ccc(N(C)C(=O)CN4CCN(C)CC4)cc3)c3ccccc3)c(O)[nH]c2c1 + COc1cc2nc(C)nc(NC(C)c3cc(N)cc(C(F)(F)F)c3)c2cc1OC1CCOC1
valueObserved: 12.8%
--
molecule: CC1(C)CCC(CN2CCN(c3ccc(C(=O)NS(=O)(=O)c4ccc(NCC5CCOCC5)c([N+](=O)[O-])c4)c(Oc4cnc5[nH]ccc5c4)c3)CC2)=C(c2ccc(Cl)cc2)C1 + CC1OCC2(CCN(c3cnc(Sc4ccnc(N)c4Cl)c(N)n3)CC2)C1N
valueObserved: 34.7%
--
molecule: Cn1nccc1Nc1nccc(-c2cc3c(s2)C(C)(C)N(CCN2CCOCC2)C3=O)n1 + COc1cc2nc(C)nc(NC(C)c3cc(N)cc(C(F)(F)F)c3)c2cc1OC1CCOC1
valueObserved: 9.05%
--
molecule: CC1COCCN1c1cc(-c2ccnn2C)c2ccnc(-c3ccn[nH]3)c2n1 (stereo not given) + CC1OCC2(CCN(c3cnc(Sc4ccnc(N)c4Cl)c(N)n3)CC2)C1N
valueObserved: 10.7%
--
molecule: CC1(C)CCC(CN2CCN(c3ccc(C(=O)NS(=O)(=O)c4ccc(NCC5CCOCC5)c([N+](=O)[O-])c4)c(Oc4cnc5[nH]ccc5c4)c3)CC2)=C(c2ccc(Cl)cc2)C1 + CNCc1ccccc1-c1csc(C(C)Nc2nc(C)nc3cc(OC)c(OC)cc23)c1
valueObserved: 0.08%

Inquiry: Enter viability, T/C (test system 292921-168-R-J2-PDC KRAS tumor spheroid viability) for COc1cc(Nc2ncc3c(n2)-c2ccc(Cl)cc2C(c2c(F)cccc2OC)=NC3)ccc1C(=O)O + C=CC(=O)N1CCN(c2nc(=O)n(-c3c(C)ccnc3C(C)C)c3nc(-c4c(O)cccc4F)c(F)cc23)C(C)C1
Reply text: 34.5%

Inquiry: Please respond with reported viability, T/C (system 292921-168-R-J2-PDC KRAS tumor spheroid viability) for CCN1CCN(Cc2ccc(Nc3ncc(F)c(-c4cc(F)c5nc(C)n(C(C)C)c5c4)n3)nc2)CC1 + CNCc1ccccc1-c1csc(C(C)Nc2nc(C)nc3cc(OC)c(OC)cc23)c1 .
Reply text: 0.13%

Inquiry: Provide the reported viability, T/C (system: 292921-168-R-J2-PDC KRAS tumor spheroid viability) for CC1OCC2(CCN(c3cnc(Sc4ccnc(N)c4Cl)c(N)n3)CC2)C1N (stereo not given) + C=CC(=O)N1CCN(c2nc(=O)n(-c3c(C)ccnc3C(C)C)c3nc(-c4c(O)cccc4F)c(F)cc23)C(C)C1
Reply text: 15.5%

Inquiry: Name the value of viability, T/C reported for CC(=O)OC12COC1CC(O)C1(C)C(=O)C(O)C3=C(C)C(OC(=O)C(O)C(NC(=O)OC(C)(C)C)c4ccccc4)CC(O)(C(OC(=O)c4ccccc4)C21)C3(C)C (stereo not given) + C=CC(=O)N1CCN(c2nc(=O)n(-c3c(C)ccnc3C(C)C)c3nc(-c4c(O)cccc4F)c(F)cc23)C(C)C1 when tested on 292921-168-R-J2-PDC KRAS tumor spheroid viability.
Reply text: 15.7%

Inquiry: State measured viability, T/C of the molecule O=C(c1cc(Cc2n[nH]c(=O)c3ccccc23)ccc1F)N1CCN(C(=O)C2CC2)CC1 + COc1cc2nc(C)nc(NC(C)c3cc(N)cc(C(F)(F)F)c3)c2cc1OC1CCOC1 with 292921-168-R-J2-PDC KRAS tumor spheroid viability.
Reply text: 73.5%
